Where do these numbers come from? They come from PubChem BioAssay (NCI).

System: HOP-18 NSCLC
Experiment: NCI tumour cell line growth inhibition, 48 h
Assay Metric: TGI

CCOC(=O)Oc1ccc2[nH]c3c(C)cc(N)c(C)c3c2c1 | > 100 µM
CCOC(=O)/C(=C/c1ccc[nH]1)P(=O)(OCC)OCC | > 100 µM
O=C1COc2cc3c(cc2N1)SCC(=O)N3 | > 100 µM
NS(=O)(=O)c1cc2c(cc1Cl)NC(C(=O)NNC(=O)c1ccncc1)=NS2(=O)=O | > 100 µM
CCOC(=O)C1=C(O)c2c(OC)ccc(OC)c2C(=O)C1=O | > 100 µM
O=C(Nc1ccccc1)Oc1ccccc1C1CCCCC1 | 68.5 µM
NC(=O)NC(=O)C1CCC(=O)N1S(=O)(=O)c1ccc(Cl)cc1 (stereo not drawn) | > 100 µM

Request: Which TGI is listed for CCCCCCCCCCCCCCCC(=O)NCC(OCC)OCC ?
Response: > 100 µM

====

Test system: HL-60(TB) leukemia
Assay: NCI tumour cell line growth inhibition, 48 h
# GI50 values compiled below

The examples below pair each entry with its known result.
CN1CCN(Cc2ccc(NC(=O)c3cncc(C#Cc4cnc5cccnn45)c3)cc2C(F)(F)F)CC1 | 0.818 µM
COc1ccc(C[C@H](N)C(=O)N[C@@H]2[C@@H](CO)OC(n3cnc4c(N(C)C)ncnc43)[C@@H]2O)cc1 (stereo partly drawn) | 0.454 µM

We now examine a further compound.
Request: Which GI50 is listed for COc1cc(-c2nn(-c3cccc(NC(=O)c4cccc(C(F)(F)F)c4)c3)cc2-c2ccncc2)ccc1Cl ?
Response: 2.02 µM

====

System: HS 578T breast
Assay: NCI tumour cell line growth inhibition, 48 h
Assay Metric: GI50

The examples below pair each entry with its known result.
CC(=O)OC1CCC2(C)C(=CCC3C4CC(CN5CC5)C(=O)C4(C)CCC32)C1 (configuration not stated) | 20.4 µM
c1csc(-c2[nH]nc3c2CCc2ccccc2-3)c1 | 14.5 µM
COc1ccc(Cl)cc1Nc1nc(C(F)(F)F)ccc1C(=O)N/N=C/c1ccc(Cl)cc1 | 22.3 µM
O=C(Nc1cccc(C(F)(F)F)c1)Nc1cc(S(=O)(=O)NC2CC2)ccc1-c1ccsc1 | 8.96 µM
N#Cc1c(N)nc(N2CCOCC2)c(C#N)c1-c1ccc(Cl)cc1Cl | 15.8 µM

Request: Which GI50 is listed for O=C1C(=O)c2c(ccc3ccccc23)-c2ccccc21 ?
Response: 2.05 µM

Request: Try this compound too: Cn1c(=O)c(Oc2ccc(F)cc2F)cc2cnc(NC3CCC(O)CC3)nc21 (configuration not stated)
Response: > 25 µM

====

Tested on: SF-268 CNS
Test: NCI tumour cell line growth inhibition, 48 h
# TGI values compiled below
Report only the number, with the unit µM understood.

ClCc1ccc(Cn2cnc3nc(Cl)nc(Cl)c32)cc1 | 1.43
Brc1ccc2c(c1)-c1ccccc1C1=NCCN12 | 9.44

We now examine a further compound.
Request: Which TGI is listed for O=C(/C=C/N1CCN(c2cccc(Cl)c2)CC1)c1ccc(Cl)cc1 ?
Response: 53.2

====

System: KM12 colon
Test: NCI tumour cell line growth inhibition, 48 h
Assay Metric: TGI

The examples below pair each entry with its known result.
O=C1CSC(c2cccc(Oc3ccccc3)c2)N1c1cc(Cl)ccc1Cl (centres undefined) | 79.2 µM
CO[C@@H](c1ccccc1)[C@H](O)[C@@](O)(c1ccccc1)P(=O)(OC)OC | > 100 µM
NC1=NN(c2ccccc2)C(=O)C1/C(=N\NC(=O)c1cc2ccccc2cc1O)C(=O)Nc1ccc(Cl)cc1 (centres undefined) | > 100 µM
Cc1c(C(=O)C/C(=N/NC(=O)CC#N)C(N)=O)[n+](=O)c2ccccc2n1[O-] | > 100 µM

Request: What TGI appears in the records for this compound with KM12 colon? CC1CC2C(=O)N(c3ccccc3)C(=O)C2c2[nH]c3ccccc3c21 (centres undefined)
Response: > 100 µM

Request: Try this compound too: O=C(Nc1cccc(C(F)(F)F)c1)Nc1cc(S(=O)(=O)NC2CC2)ccc1-c1ccsc1
Response: 16.1 µM

Request: Try this compound too: CC(=O)OC1C(C)OC(OC2C[C@](O)(C(C)=O)Cc3c(O)c4c(c(O)c32)C(=O)c2ccccc2C4=O)C(F)C1OC(C)=O (some centres undefined)
Response: > 100 µM

Request: Try this compound too: N#Cc1c(N/N=C/c2c(Cl)cccc2Cl)nc(N)nc1N1CCCC1
Response: > 100 µM

Request: Try this compound too: O=C1C[C@@]23CCC4(CC2=CCC[C@H]3O1)OCCO4
Response: > 100 µM

====

# TGI values compiled below
System: SF-268 CNS
Assay: NCI tumour cell line growth inhibition, 48 h

Request: Which TGI is listed for COC(=O)C1CCC(=S)N1C(C)=O (stereo not given) ?
Response: > 100 µM

====

Test system: M14 melanoma
Assay: NCI tumour cell line growth inhibition, 48 h
Assay Metric: TGI

The examples below pair each entry with its known result.
N#Cc1c(N/N=C/c2c(Cl)cccc2Cl)nc(N)nc1N1CCCC1 | > 100 µM
O=[N+]([O-])c1cccc(C2=NOC3CCCC23)c1 (configuration not stated) | > 100 µM
CCOC(=O)c1ccc(-c2cccs2)[nH]1 | > 100 µM
CCOC(=O)C1C(=O)C(=O)N2CCc3c([nH]c4ccccc34)C12 (configuration not stated) | > 100 µM
CC(C)c1nc(Cl)c(Cl)c(Cl)n1 | 19 µM

Request: Which TGI is listed for CCOC(=O)N/N=C(/N)Cc1ccc(Cl)cc1 ?
Response: > 100 µM

Request: Try this compound too: CC(=O)Oc1c(OC(C)C)cc(=O)n2ccsc12
Response: > 100 µM

Request: Try this compound too: N#Cc1c2c(c(Nc3ccc(Cl)cc3)n3c1nc1ccccc13)CCCC2
Response: > 100 µM

====

System: OVCAR-3 ovarian
Assay: NCI tumour cell line growth inhibition, 48 h
Assay Metric: TGI

The examples below pair each entry with its known result.
COc1ccc(Cl)cc1Nc1nc(C(F)(F)F)ccc1C(=O)N/N=C/c1ccc(Cl)cc1 | 1.66 µM
CCCCCNC(=O)OC1CCn2c1nc1c2C(=O)C(C)=C(N2CC2)C1=O (stereo not drawn) | 7.05 µM
O=C(c1ccccc1)n1c2ccc(Br)cc2c2nc3ccccc3nc21 | > 100 µM
Nc1nc2c(ccc3ccccc32)[nH]1 | > 10 µM
Cc1cc2c(SCc3ccccc3Cl)nc(N)nc2nc1C | > 100 µM

Request: Which TGI is listed for O=CC12CCCN1CCC2 ?
Response: > 100 µM

Request: Try this compound too: CCCCCCCCCCCC1=C(O)C(=O)C=C(O)C1=O
Response: 14.4 µM

Request: Try this compound too: CC(=O)Nc1ccc(C(=O)NN2C(=O)CSC2c2ccccc2)cc1 (stereo not drawn)
Response: > 100 µM

Request: Try this compound too: CN(C)C(=O)c1cc2cnc(Nc3ccc(N4CCNCC4)cn3)nc2n1C1CCCC1
Response: 69.2 µM

Request: Try this compound too: COC(=O)C(NC(=O)c1ccccc1)c1ccc(OC)c(I)c1 (stereo not drawn)
Response: 88.2 µM

====

System: DMS 273 small cell lung
Test: NCI tumour cell line growth inhibition, 48 h
Assay Metric: TGI

O=[N+]([O-])c1cccc2c1[nH]c1c(-c3ccccc3)nccc12 | 7.58 µM
NS(=O)(=O)c1cc2c(cc1Cl)NC(C(=O)NNC(=O)c1ccncc1)=NS2(=O)=O | > 100 µM

Request: Which TGI is listed for COC(=O)c1ccccc1NCc1cc(O)ccc1O ?
Response: > 100 µM

Request: Try this compound too: CCCNc1ncnc2c1cnn2C
Response: > 100 µM

Request: Try this compound too: O=C1NC2(CCCCC2)C2=C1CCCCC2
Response: > 100 µM

====

# log10 TGI values compiled below
Test system: UACC-62 melanoma
Assay: NCI tumour cell line growth inhibition, 48 h
A value of 2 here means TGI of 100 in µM, since values are log10.

The examples below pair each entry with its known result.
CC(=O)Oc1cc(OC(C)=O)c2c(c1C)CC[C@@H]1[C@@H]2CC[C@]2(C)[C@@H](OC(C)=O)CC[C@@H]12 | 1.54
[O-]c1c2cc(-[n+]3c(-c4ccccc4)cc(-c4ccccc4)cc3-c3ccccc3)cc1CO[C@@H](c1ccccc1)[C@H](c1ccccc1)OCCOCCO[C@@H](c1ccccc1)[C@H](c1ccccc1)OC2 | 0.14
COc1ccc(C[C@H](N)C(=O)N[C@@H]2[C@@H](CO)OC(n3cnc4c(N(C)C)ncnc43)[C@@H]2O)cc1 (stereo not given in full) | 0.03
CS(=O)(=O)Nc1ccc(Nc2c3ccccc3nc3cc(Cl)ccc23)cc1 | 1.11
Nc1ccc2ncc(Nc3ccc(Cl)c(Cl)c3)nc2c1 | 1.71

Request: Which log10 TGI is listed for O=C(/C=C/N1CCN(c2cccc(Cl)c2)CC1)c1ccc(Cl)cc1 ?
Response: 1.92

Request: Try this compound too: CCOC(=O)C(NC(=O)c1cccc(Cl)c1)(N1CCN(c2cc3c(cc2F)c(=O)c(C(=O)O)cn3CC)CC1)C(F)(F)F (stereo not given)
Response: 1.51

Request: Try this compound too: O=[N+]([O-])c1cccc2c1[nH]c1c(-c3ccccc3)nccc12
Response: 0.96
